System: C. albicans ATCC 10231
test summary: Preservation stress test, example formulation 2 (roll-on deodorant formulation)
Format: cell-based
measurement parameters: 1% active substance, 14 d
Item-by-item account of Microbicidal activity given as logarithmic reduction in germ count
State just the number; it will be interpreted in log. Red..

Illustrative cases are given below, each with its answer.
compound	unit tag	number
CCCC(O)CO (stereo not drawn) [1,2-Pentanediol, 1,2-pentanediol, reference compound]	log. Red.	0
CCCCCCCCC(C)(CO)CO	log. Red.	0

Moving on to the next compound.
Request: State the recorded Microbicidal activity given as logarithmic reduction in germ count for this entry: OCC1(CO)CC2CCC1C2 (stereo not drawn)
Response: 0

====

Tested on: C. albicans NCPF 3179
test summary: Microstatic activity, MIC in tryptone soy broth
Assay type: cell-based
measurement parameters: Candida albicans, NCPF3179, 120 h, 25° C., 5 days, lower limit of MIC range, read-out: MIC value (ppm of diol), from
measurement label: MIC

# count of solved cases: 3
molecule	test target	MIC
OCC1(CO)CC2CCC1C2 (stereo not shown)	C. albicans NCPF 3179	> 50 mg/mL
OCC1(CO)CCCCC1	C. albicans NCPF 3179	> 25 mg/mL
CCCCCC(CO)(CO)CCC	C. albicans NCPF 3179	> 6.25 mg/mL

From here, focus on the item given below.
Request: Entry under review: CC(CO)(CO)c1ccccc1 . Reported MIC?
Response: > 50 mg/mL

====

Test system: C. albicans ATCC 10231
test summary: Preservation stress test, example formulation 1 (standard emulsion O/W)
Format: cell-based
measurement parameters: 1% active substance, 7 d
Microbicidal activity given as logarithmic reduction in germ count for assorted compounds
Give the quantity in log. Red., number only.

Some solved entries appear below for comparison.
compound	number
CCCCC(O)CO (stereo not shown)	0
CCCCCCCCC(C)(CO)CO	5
CCCC(O)CO (stereo not shown) [1,2-Pentanediol, 1,2-pentanediol, reference compound]	0
CCCCCC(CO)(CO)CCC	5

Field: next compound
Request: For OCC1(CO)CCCC1 , what is its reported Microbicidal activity given as logarithmic reduction in germ count?
Response: 5

====

Microbicidal activity given as logarithmic reduction in germ count for assorted compounds
Tested on: A. niger ATCC 16404
test summary: Preservation stress test, example formulation 1 (standard emulsion O/W)
Format: cell-based
measurement parameters: 1% active substance, 48 h

compound	result
CCCCC(O)CO (stereo not shown)	0 log. Red.
OCC1(CO)CCCC1	2 log. Red.
CCCCCC(CO)(CO)CCC	0 log. Red.
CCCCCCCCC(C)(CO)CO	0 log. Red.
CC(C)C(C)(CO)CO	1 log. Red.
CCCC(O)CO (stereo not shown) [1,2-Pentanediol, 1,2-pentanediol, reference compound]	0 log. Red.

Request: Quick one: Microbicidal activity given as logarithmic reduction in germ count for OCC1(CO)CC2CCC1C2 (stereo not shown) ?
Response: 0 log. Red.

====

System: C. albicans ATCC 10231
test summary: Preservation stress test, example formulation 1 (standard emulsion O/W)
Type: cell-based
measurement parameters: 1% active substance, 28 d
measurement label: Microbicidal activity given as logarithmic reduction in germ count (log. Red.)
Write it as a number; the unit log. Red. goes unstated.

molecule	test target	number
CCCCC(O)CO (stereo not drawn)	C. albicans ATCC 10231	1
CCCCCCCCC(C)(CO)CO	C. albicans ATCC 10231	5
CCCCCC(CO)(CO)CCC	C. albicans ATCC 10231	5
CC(C)C(C)(CO)CO	C. albicans ATCC 10231	5
OCC1(CO)CC2CCC1C2 (stereo not drawn)	C. albicans ATCC 10231	5

Now let's try a different one.
Request: Which measured Microbicidal activity given as logarithmic reduction in germ count value corresponds to OCC1(CO)CCCC1 ?
Response: 5

====

System: E. coli ATCC 10536
test summary: Preservation stress test, example formulation 2 (roll-on deodorant formulation)
Assay type: cell-based
measurement parameters: 1% active substance, 14 d
measurement label: Microbicidal activity given as logarithmic reduction in germ count (log. Red.)
Give just the number in log. Red.; leave the unit off.

Example entries and their recorded answers appear below.
compound	test target	number
CCCCCCCCC(C)(CO)CO	E. coli ATCC 10536	5
OCC1(CO)CCCC1	E. coli ATCC 10536	5
CCCCCC(CO)(CO)CCC	E. coli ATCC 10536	5
CC(C)C(C)(CO)CO	E. coli ATCC 10536	5
CCCC(O)CO (stereo not drawn) [1,2-Pentanediol, 1,2-pentanediol, reference compound]	E. coli ATCC 10536	1

Below: the item to evaluate.
Request: Could you tell me which Microbicidal activity given as logarithmic reduction in germ count is on file for OCC1(CO)CC2CCC1C2 (stereo not drawn) ?
Response: 5

====

Tested on: S. aureus NCIMB 9578
test summary: Microstatic activity, MIC in tryptone soy broth
Assay type: cell-based
measurement parameters: Staphylococcus aureus, NCIMB9578, 30° C., 48 hours, lower limit of MIC range, read-out: MIC value (ppm of diol), from
measurement label: MIC

Worked examples follow.
molecule	measurement label	result
CC(CO)(CO)c1ccccc1	MIC	> 12.5 mg/mL
CCCCCC(CO)(CO)CCC	MIC	> 50 mg/mL

# ---- query molecule ----
Request: Entry CC(O)CC(C)O (stereo not drawn) [2,4-Pentanediol, 2,4-pentanediol, reference compound] has what MIC?
Response: > 50 mg/mL

====

Test system: P. aeruginosa NCIMB 10421
test summary: Microstatic activity, MIC in tryptone soy broth
Format: cell-based
measurement parameters: Pseudomonas aeruginosa, NCIMB10421, 30° C., 48 hours, lower limit of MIC range, read-out: MIC value (ppm of diol), from
measurement label: MIC

Some solved cases for reference:
compound	MIC
CC(O)CC(C)O (stereo not drawn) [2,4-Pentanediol, 2,4-pentanediol, reference compound]	> 50 mg/mL
CC(O)CO (stereo not drawn) [Propylene glycol, propylene glycol, reference compound]	> 100 mg/mL
CCCCC(CC)(CO)CO	> 50 mg/mL
OCC1(CO)CC2CCC1C2 (stereo not drawn)	> 12.5 mg/mL
CC(C)C(C)(CO)CO	> 12.5 mg/mL

Here is the next item to consider.
Request: MIC lookup needed for OCC1(CO)CCCCCCC1 , thanks.
Response: > 12.5 mg/mL

====

Test system: C. albicans NCPF 3179
test summary: Microstatic activity, MIC in tryptone soy broth
Format: cell-based
measurement parameters: Candida albicans, NCPF3179, 120 h, 25° C., 5 days, upper limit of MIC range, read-out: MIC value (ppm of diol), to
measurement label: MIC

Completed entries (count: 3):
molecule	MIC
OCC1(CO)CC2CCC1C2 (stereo not drawn)	≤ 100 mg/mL
CC(C)C(C)(CO)CO	≤ 50 mg/mL
CC(C)CCC(CO)(CO)C(C)C	≤ 50 mg/mL

# context switch: different molecule, same MIC
Request: State its MIC on C. albicans NCPF 3179: OCC1(CO)CCCC1
Response: ≤ 50 mg/mL

====

Test system: P. vulgaris NCIMB 4175
test summary: Microstatic activity, MIC in tryptone soy broth
Format: cell-based
measurement parameters: Proteus vulgaris, NCIMB4175, 30° C., 48 hours, upper limit of MIC range, read-out: MIC value (ppm of diol), to
Protocol: For this, in each case a 40 percent strength by weight solution of a diol in propylene glycol was prepared at 60° C. This solution was diluted with a double-strength soy solution (double-strength tryptone soy broth) as nutrient medium in the volume ratio 1:1. […] In each case, the MIC (Minimum Inhibitory Concentration) value was determined. […]
measurement label: MIC

Below, 2 molecules whose answers are already recorded.
molecule	measurement label	result
CCCC(O)CO (stereo not shown) [1,2-Pentanediol, 1,2-pentanediol, reference compound]	MIC	≤ 50 mg/mL
CCCCCCCCC(C)(CO)CO	MIC	≤ 100 mg/mL

Switching to the query record.
Request: Which MIC value belongs to CC(O)CC(C)O (stereo not shown) [2,4-Pentanediol, 2,4-pentanediol, reference compound] ?
Response: ≤ 100 mg/mL

====

Test system: P. aeruginosa NCIMB 10421
test summary: Microstatic activity, MIC in tryptone soy broth
Type: cell-based
measurement parameters: Pseudomonas aeruginosa, NCIMB10421, 30° C., 48 hours, lower limit of MIC range, read-out: MIC value (ppm of diol), from
Item-by-item account of MIC

molecule	result
CCC(C)(CO)CO [EMPD, 2-ethyl-2-methylpropane-1,3-diol]	> 12.5 mg/mL
OCC1(CO)CC/C=C\CCC1 [DMCOE, 1,1-dimethylolcyclooct-4-ene]	> 12.5 mg/mL
OCC1(CO)CCCCC1 [DMCH, 1,1-dimethylolcyclohexane]	> 12.5 mg/mL
OCC1(CO)CCCC1 [DMCP, 1,1-dimethylolcyclopentane]	> 12.5 mg/mL
CC(C)CCC(CO)(CO)C(C)C [IMBPD]	> 100 mg/mL

Request: Field request: MIC | item: CCCCCCCCC(C)(CO)CO [OMPD, 2-octyl-2-methylpropane-1,3-diol]
Response: > 100 mg/mL

Request: Thanks! And CCCC(O)CO (stereo not drawn) [1,2-Pentanediol, 1,2-pentanediol, reference compound] ?
Response: > 12.5 mg/mL

Request: Now the same for CCCCCC(CO)(CO)CCC [PPPD, 2-pentyl-2-propylpropane-1,3-diol]
Response: > 100 mg/mL

Request: Lookup CC(CO)(CO)c1ccccc1 [MPPD, 2-methyl-2-phenylpropane-1,3-diol]
Response: > 25 mg/mL
